Here, each record is paired with measured CPE inhibition data.
procedure_text: inhibition of RSV-induced cytopathic effect – HEp-2 cells, primary 10 µM value included (AID 2391)
setup_conditions: at 10 µM, active compounds read high
Screen size: about 310,000 compounds; about 410 (0.13%) were called active. Inconclusive results (about 2%) are left out. Only a sample is shown. Potency and affinity values are given separately.
Numbers only here, please. The scale is %.

**Query** Would you kindly share the measured CPE inhibition for Cc1ccc(C)c(OCC(=O)NCC(c2ccco2)N2CCCCC2)c1 (stereo unspecified) ?
**Result** -1.03

**Query** Need CPE inhibition, item Cn1ccnc1SCc1ccc(Cl)cc1Cl
**Result** 1.17

**Query** # CPE inhibition lookup, item CCc1c(C(=O)Nc2cc(C)cc(C)c2)[nH]c(C)c1C(C)=O
**Result** 2.64

**Query** Could you share which CPE inhibition value was measured for CC(=O)OCCNC(=O)Cn1cnc2c1c(=O)n(C)c(=O)n2C ?
**Result** 0.79

**Query** Request the reported CPE inhibition associated with COc1ccc(S(=O)(=O)N2CC(C(=O)O)Oc3ccc(CC(=O)O)cc32)cc1 (stereo unspecified)
**Result** 1.19

**Query** What does the data say about its CPE inhibition? Entry: O=S(=O)(c1cccc(-c2csc(-c3cccnc3)n2)c1)N1CCOCC1
**Result** 18.8

====

procedure_text: inhibition of RSV-induced cytopathic effect – HEp-2 cells, primary 10 µM value included (AID 2391)
setup_conditions: at 10 µM, active compounds read high
About 410 (0.13%) of roughly 310,000 compounds were called active. Not shown: some 2% with an inconclusive outcome. A selection follows. Measured potencies and affinities stand elsewhere.
parameter: CPE inhibition (%)
Reply with just the number (in %).

Example entries and their recorded answers appear below.
[[record]]
compound = "OCc1cn(-c2ccc(Cl)cc2)nn1"
value_unit = "%"
observed_measurement = 0.61

[[record]]
compound = "Cc1cc(C)c2nc(N3CCC(C(=O)NCCCN4CCCCC4)CC3)sc2c1"
value_unit = "%"
observed_measurement = 21.9

[[record]]
compound = "Cc1nn(-c2ccccc2Cl)c(Cl)c1/C=N/Nc1nc2ccccc2s1"
value_unit = "%"
observed_measurement = 4.62

[[record]]
compound = "Cc1ccc(OCCOC(=O)c2cccc(S(=O)(=O)N3CC(C)OC(C)C3)c2)cc1 (stereo unspecified)"
value_unit = "%"
observed_measurement = 3.28

[[record]]
compound = "COc1ccccc1CCNS(=O)(=O)c1cc2c3c(c1)CCN3C(=O)CC2"
value_unit = "%"
observed_measurement = 2.18


**Query** Entry Cc1nn(Cc2ccc(Cl)cc2)c(C)c1NC(=O)c1cc(C(C)C)on1 has what CPE inhibition?
**Result** 7.7

**Query** Recorded CPE inhibition of CCOc1ccc(-c2c(C(=O)N/N=C/C3CC=CCC3)nnn2-c2nonc2N)cc1 (stereo unspecified) , please.
**Result** 0.26

**Query** Using the record for Cc1nc(-c2noc(-c3cccc(Cl)c3)n2)c(C(F)(F)F)o1 , report its CPE inhibition.
**Result** 1.74

**Query** Form field: reported CPE inhibition of Cc1nn(-c2ccccc2Cl)c(Cl)c1/C=N/Nc1cccc(C(=O)O)c1
**Result** 3.47

**Query** Please look up its CPE inhibition: Cc1cc(C(=O)Nc2c(C)nn(Cc3c(Cl)cccc3Cl)c2C)no1
**Result** -0.07

**Query** Which CPE inhibition is listed for Cc1cc(NC(=O)C(C)SCC(=O)OCC(=O)N(C)c2ccccc2)no1 (stereo unspecified) ?
**Result** 0.41

====

Parameter: CPE inhibition. Scope: all listed entries.
procedure_text: inhibition of RSV-induced cytopathic effect – HEp-2 cells, primary 10 µM value included (AID 2391)
setup_conditions: at 10 µM, active compounds read high
In all, about 310,000 compounds went through this assay and about 410 (0.13%) were called active. About 2% were inconclusive and are not listed. Not all results are given here. Entries with a potency or affinity are not part of this list.
Express it in %; write the number only.

Reference set (5 entries):
[[record]]
smiles_string = "CCOc1ccc(C(c2c(O)nc(SC)[nH]c2=O)c2c(O)nc(SC)[nH]c2=O)cc1"
observed_measurement = 1.1

[[record]]
smiles_string = "COC(=O)c1ccc(CSc2nc3ccccc3c(=O)n2CC(C)C)o1"
observed_measurement = 4.85

[[record]]
smiles_string = "COc1ccccc1-n1c(SCC(=O)Nc2ccc(Br)cc2)nc(O)cc1=O"
observed_measurement = 0.85

[[record]]
smiles_string = "COC(=O)c1cccc(CSc2nc(-c3ccccc3)c(C#N)c(=O)[nH]2)c1"
observed_measurement = -0.22

[[record]]
smiles_string = "O=S(=O)(Nc1ccccc1)c1cccc2nsnc12"
observed_measurement = 1.2


Continue with the next molecule.
**Query** CPE inhibition for COC(=O)c1ccc(Cn2nnc3ccccc3c2=O)o1 ?
**Result** 4.91

====

procedure_text: inhibition of RSV-induced cytopathic effect – HEp-2 cells, primary 10 µM value included (AID 2391)
setup_conditions: at 10 µM, active compounds read high
The campaign covered roughly 310,000 compounds. About 410 (0.13%) were called active. Not shown: some 2% with an inconclusive outcome. These entries were drawn from the full list. Measured potencies and affinities stand elsewhere.
Each entry below carries its reported CPE inhibition.
Use % as the unit, but write only the number.

Guide cases for CPE inhibition, answers given:
[[record]]
compound = "COc1ccc(NC(=O)CCn2c(=O)c3cccn3c3ccccc32)c(OC)c1"
observed_measurement = 8.66

[[record]]
compound = "O=C(CCN1c2ccccc2Sc2ccccc21)OCC(=O)N1CCN(C(=O)c2ccco2)CC1"
observed_measurement = 5.26


**Query** I'd like to know its CPE inhibition. The compound in question is O=[N+]([O-])c1ccccc1S(=O)(=O)Nc1ccc(-c2ccc(N3CCOCC3)nn2)cc1
**Result** -1.46

**Query** Entry under review: O=[N+]([O-])c1ccccc1S(=O)(=O)Nc1ccc(-c2ccc(N3CCCC3)nn2)cc1 . Reported CPE inhibition?
**Result** -1.43

**Query** Bench note: what CPE inhibition did O=[N+]([O-])c1ccc(S(=O)(=O)Nc2cccc(-c3ccc(N4CCOCC4)nn3)c2)cc1 show?
**Result** 38.2

**Query** Which CPE inhibition reading was recorded for the compound COc1ccc(Cl)cc1N(C(C)C(=O)O)S(C)(=O)=O (stereo not given) ?
**Result** 1.24

**Query** I have this compound here, COc1ccc(NC(=O)CCn2c(=O)c3cccn3c3ccccc32)cc1 , and I need its recorded CPE inhibition.
**Result** 3.29

**Query** Suppose we examine the compound CSc1nc(Oc2ccc(C)cc2)cc(C(F)(F)F)n1 ; what CPE inhibition value has been reported?
**Result** 0.19

**Query** Could you share which CPE inhibition value was measured for COc1ccc(OC)c(/C(C)=N/Nc2ccc(C(=O)O)cc2)c1 ?
**Result** 0.2

**Query** Quick one: CPE inhibition for O=C(NN=C1c2ccccc2-c2ccccc21)c1ccccn1 ?
**Result** 1.09

====

procedure_text: inhibition of RSV-induced cytopathic effect – HEp-2 cells, primary 10 µM value included (AID 2391)
setup_conditions: at 10 µM, active compounds read high
Screen size: about 310,000 compounds; about 410 (0.13%) were called active. About 2% were inconclusive and are not listed. The list is a sample of the results. Potency and affinity values are given separately.
parameter: CPE inhibition (%)
# unit: % | format: bare number

[[record]]
compound = "CCOc1ccc(NC(=O)CC2C(=O)N(c3ccccc3)C(=O)N2Cc2ccccn2)cc1 (stereo not given)"
value_unit = "%"
observed_measurement = 3.73

[[record]]
compound = "Cc1cc(Cl)ccc1OCCCC(=O)N1CCN(C(=O)c2ccco2)CC1"
value_unit = "%"
observed_measurement = 17.5

[[record]]
compound = "CC1CCN(C(=O)CCc2nnc3ccc(NCCCN4CCCC4=O)nn23)CC1"
value_unit = "%"
observed_measurement = 2.33

[[record]]
compound = "CC(C)CCN1CCN(Cc2cccn2-c2nccs2)CC1CCO (stereo not given)"
value_unit = "%"
observed_measurement = 1.17

[[record]]
compound = "COc1ccc(N2C(=O)C(CC(=O)Nc3ccccc3)N(Cc3ccccn3)C2=S)cc1 (stereo not given)"
value_unit = "%"
observed_measurement = 4.08


**Query** // returns reported CPE inhibition for input CCOc1ccc(NC(=O)CC2C(=O)N(c3ccccc3)C(=S)N2Cc2ccccn2)cc1 (stereo not given)
**Result** 7.95

**Query** Would you mind telling me what CPE inhibition value was observed for OCCC1CN(Cc2cccn2-c2nccs2)CCN1Cc1ccccc1 (stereo not given) ?
**Result** -1.03

**Query** Could you share which CPE inhibition value was measured for N#Cc1ccc(CN2CCN(C(=O)CC(NC(=O)c3ccccc3)c3ccccc3)CC2)cc1 (stereo not given) ?
**Result** 2.31

**Query** Any idea what CPE inhibition was measured for COC(=O)CSc1nnc(CNC(=O)c2ccccc2F)n1-c1ccc(F)cc1 ?
**Result** 1.47

**Query** Returns the measured CPE inhibition for the input compound. Input: COc1cc(CC2COC(c3ccc(O)c(OC)c3)C2COC(C)=O)ccc1O (stereo not given)
**Result** 5.55
